Source of measurements: ChEMBL document CHEMBL2021794

system: SF-268; assay: Growth inhibition of human SF268 cells after 48 hrs by SRB assay; assay type: functional; details: SF-268, 48 h
Measured Parameter: TGI

c1ccc(C(c2ccc(N3CCN(C4CCCCC4)CC3)cc2)C23CC4CC(CC(C4)C2)C3)cc1 (centres undefined) | 99.8 µM
CN1CCN(c2ccc(C(c3ccccc3)C34CC5CC(CC(C5)C3)C4)cc2)CC1 (centres undefined) | 61.6 µM
CCN1CCN(c2ccc(C(c3ccccc3)C34CC5CC(CC(C5)C3)C4)cc2)CC1 (centres undefined) | 53.5 µM
c1ccc(C(c2ccc(N3CCNCC3)cc2)C23CC4CC(CC(C4)C2)C3)cc1 (centres undefined) | 6.11 µM

###

system: HCT-15; assay: Growth inhibition of human HCT15 cells after 48 hrs by SRB assay; type: functional; details: HCT-15, 48 h
Measured Parameter: GI50 (µM)

c1ccc(C(c2ccc(N3CCNCC3)cc2)C23CC4CC(CC(C4)C2)C3)cc1 (centres undefined) | 3.4
CCN1CCN(c2ccc(C(c3ccccc3)C34CC5CC(CC(C5)C3)C4)cc2)CC1 (centres undefined) | 6.63
CN1CCN(c2ccc(C(c3ccccc3)C34CC5CC(CC(C5)C3)C4)cc2)CC1 (centres undefined) | 5.54
O=c1[nH]cc(F)c(=O)[nH]1 | 21

###

TGI by entry:
test system: SK-HEP1; experiment: Growth inhibition of human SKHEP1 cells after 48 hrs by SRB assay; type: functional; details: SK-HEP1, 48 h
Measured Parameter: TGI (µM)

c1ccc(C(c2ccc(N3CCNCC3)cc2)C23CC4CC(CC(C4)C2)C3)cc1 (stereo not given) | 6.48
c1ccc(CN2CCN(c3ccc(C(c4ccccc4)C45CC6CC(CC(C6)C4)C5)cc3)CC2)cc1 (stereo not given) | 100
O=c1[nH]cc(F)c(=O)[nH]1 [FLUOROURACIL] | 100
CN1CCN(c2ccc(C(c3ccccc3)C34CC5CC(CC(C5)C3)C4)cc2)CC1 (stereo not given) | 28.4
CCN1CCN(c2ccc(C(c3ccccc3)C34CC5CC(CC(C5)C3)C4)cc2)CC1 (stereo not given) | 7.24

###

experiment: Growth inhibition of HUVEC cells after 48 hrs by SRB assay; format: cell-based; conditions: human, HUVEC cells
Field 'label' (enum: Condition met / Condition not met). Set to Condition met when GI50 at 48 h is strictly under 10 µM; else Condition not met.

CN1CCN(c2ccc(C(c3ccccc3)C34CC5CC(CC(C5)C3)C4)cc2)CC1 (stereo not given) | Condition met
c1ccc(CN2CCN(c3ccc(C(c4ccccc4)C45CC6CC(CC(C6)C4)C5)cc3)CC2)cc1 (stereo not given) | Condition not met
c1ccc(C(c2ccc(N3CCNCC3)cc2)C23CC4CC(CC(C4)C2)C3)cc1 (stereo not given) | Condition met
CCN1CCN(c2ccc(C(c3ccccc3)C34CC5CC(CC(C5)C3)C4)cc2)CC1 (stereo not given) | Condition met

###

test system: HUVEC; experiment: Growth inhibition of HUVEC cells after 48 hrs by SRB assay; assay type: cell-based; conditions: human, huvec, 48 h
Measured Parameter: LC50 (µM)

CCN1CCN(c2ccc(C(c3ccccc3)C34CC5CC(CC(C5)C3)C4)cc2)CC1 (stereo not given) | 9.88
c1ccc(C(c2ccc(N3CCNCC3)cc2)C23CC4CC(CC(C4)C2)C3)cc1 (stereo not given) | 100
c1ccc(CN2CCN(c3ccc(C(c4ccccc4)C45CC6CC(CC(C6)C4)C5)cc3)CC2)cc1 (stereo not given) | 100
O=c1[nH]cc(F)c(=O)[nH]1 [FLUOROURACIL] | 100
CN1CCN(c2ccc(C(c3ccccc3)C34CC5CC(CC(C5)C3)C4)cc2)CC1 (stereo not given) | 10.34

###

system: BXPC-3; assay: Growth inhibition of human BxPC3 cells after 48 hrs by SRB assay; assay type: functional; conditions: BXPC-3, 48 h
Measured Parameter: LC50

CN1CCN(c2ccc(C(c3ccccc3)C34CC5CC(CC(C5)C3)C4)cc2)CC1 (stereo unspecified) | 16.6 µM
c1ccc(C(c2ccc(N3CCN(C4CCCCC4)CC3)cc2)C23CC4CC(CC(C4)C2)C3)cc1 (stereo unspecified) | 100 µM
c1ccc(C(c2ccc(N3CCNCC3)cc2)C23CC4CC(CC(C4)C2)C3)cc1 (stereo unspecified) | 9.05 µM
c1ccc(CN2CCN(c3ccc(C(c4ccccc4)C45CC6CC(CC(C6)C4)C5)cc3)CC2)cc1 (stereo unspecified) | 100 µM
CCN1CCN(c2ccc(C(c3ccccc3)C34CC5CC(CC(C5)C3)C4)cc2)CC1 (stereo unspecified) | > 100 µM
c1ccc(C(c2ccc(N3CCOCC3)cc2)C23CC4CC(CC(C4)C2)C3)cc1 (stereo unspecified) | 100 µM

###

experiment: Growth inhibition of human MSC cells after 48 hrs by SRB assay; type: cell-based; settings: msc, 48 h
Measured Parameter: TGI (µM)

CN1CCN(c2ccc(C(c3ccccc3)C34CC5CC(CC(C5)C3)C4)cc2)CC1 (centres undefined) | 54.21
c1ccc(C(c2ccc(N3CCNCC3)cc2)C23CC4CC(CC(C4)C2)C3)cc1 (centres undefined) | 7.1
O=c1[nH]cc(F)c(=O)[nH]1 | 86.06
CCN1CCN(c2ccc(C(c3ccccc3)C34CC5CC(CC(C5)C3)C4)cc2)CC1 (centres undefined) | 72

###

test system: BXPC-3; test: Growth inhibition of human BxPC3 cells after 48 hrs by SRB assay; type: functional; conditions: BXPC-3, 48 h
Mark each entry satisfied if its GI50 sits below 8 µM, and not satisfied for all others.

CN1CCN(c2ccc(C(c3ccccc3)C34CC5CC(CC(C5)C3)C4)cc2)CC1 (configuration not stated) | satisfied
c1ccc(CN2CCN(c3ccc(C(c4ccccc4)C45CC6CC(CC(C6)C4)C5)cc3)CC2)cc1 (configuration not stated) | satisfied
CCN1CCN(c2ccc(C(c3ccccc3)C34CC5CC(CC(C5)C3)C4)cc2)CC1 (configuration not stated) | satisfied
Nc1ccn([C@@H]2O[C@H](CO)[C@@H](O)C2(F)F)c(=O)n1 [GEMCITABINE] | satisfied
c1ccc(C(c2ccc(N3CCN(C4CCCCC4)CC3)cc2)C23CC4CC(CC(C4)C2)C3)cc1 (configuration not stated) | not satisfied
c1ccc(C(c2ccc(N3CCNCC3)cc2)C23CC4CC(CC(C4)C2)C3)cc1 (configuration not stated) | satisfied

###

tested on: DMS-114; experiment: Growth inhibition of human DMS114 cells after 48 hrs by SRB assay; assay type: functional; conditions: DMS-114, 48 h
Measured Parameter: TGI (µM)

O=c1[nH]cc(F)c(=O)[nH]1 [FLUOROURACIL] | 100
CCN1CCN(c2ccc(C(c3ccccc3)C34CC5CC(CC(C5)C3)C4)cc2)CC1 (centres undefined) | 11.6
c1ccc(C(c2ccc(N3CCNCC3)cc2)C23CC4CC(CC(C4)C2)C3)cc1 (centres undefined) | 6.51
CN1CCN(c2ccc(C(c3ccccc3)C34CC5CC(CC(C5)C3)C4)cc2)CC1 (centres undefined) | 9.17

###

tested on: HUVEC; test: Growth inhibition of HUVEC cells after 48 hrs by SRB assay; format: cell-based; settings: human, huvec, 48 h
Measured Parameter: TGI (µM)

c1ccc(C(c2ccc(N3CCNCC3)cc2)C23CC4CC(CC(C4)C2)C3)cc1 (stereo not given) | 7.62
c1ccc(CN2CCN(c3ccc(C(c4ccccc4)C45CC6CC(CC(C6)C4)C5)cc3)CC2)cc1 (stereo not given) | 100
O=c1[nH]cc(F)c(=O)[nH]1 | 100
CCN1CCN(c2ccc(C(c3ccccc3)C34CC5CC(CC(C5)C3)C4)cc2)CC1 (stereo not given) | 6.72
CN1CCN(c2ccc(C(c3ccccc3)C34CC5CC(CC(C5)C3)C4)cc2)CC1 (stereo not given) | 7.43

###

The entries below are paired with their reported GI50 at 48 h.
assay: Growth inhibition of human MSC cells after 48 hrs by SRB assay; type: cell-based; conditions: MSC cells
Measured Parameter: GI50 at 48 h

CN1CCN(c2ccc(C(c3ccccc3)C34CC5CC(CC(C5)C3)C4)cc2)CC1 (centres undefined) | 16.9 µM
O=c1[nH]cc(F)c(=O)[nH]1 | 8.92 µM
c1ccc(C(c2ccc(N3CCNCC3)cc2)C23CC4CC(CC(C4)C2)C3)cc1 (centres undefined) | 4.87 µM
CCN1CCN(c2ccc(C(c3ccccc3)C34CC5CC(CC(C5)C3)C4)cc2)CC1 (centres undefined) | 19.5 µM

###

As shown below, each of these compounds has a reported pIC50 value.
test: Displacement of [3H](+)1-DTG from sigma-2 receptor expressed in rat cerebral cortex membranes after 2 hrs by liquid scintillation spectroscopy; type: cell membranes, Membrane
pIC50: −log10 of the molar value.
Measured Parameter: pIC50

c1ccc(C(c2ccc(N3CCN(C4CCCCC4)CC3)cc2)C23CC4CC(CC(C4)C2)C3)cc1 (stereo unspecified) | 7.01
CN1CCN(c2ccc(C(c3ccccc3)C34CC5CC(CC(C5)C3)C4)cc2)CC1 (stereo unspecified) | 7.42
c1ccc(CN2CCN(c3ccc(C(c4ccccc4)C45CC6CC(CC(C6)C4)C5)cc3)CC2)cc1 (stereo unspecified) | 6.92
CCN1CCN(c2ccc(C(c3ccccc3)C34CC5CC(CC(C5)C3)C4)cc2)CC1 (stereo unspecified) | 8.40
